measurement_protocol: physchem
test_parameters: octan-1-ol/water, pH 7.4, LogD7.4
# maps each entry to its logD
Format: numeric value only, no unit, no commentary.

[[record]]
structure_string = "COc1ccccc1N1CCN(Cc2c(Br)c(=O)n(-c3ccccc3)n2C)CC1"
measured_result = 2.5


Qu. Find the recorded logD belonging to COc1cnc(-c2ccccn2)nc1NC(C)C and report it.
Ans. 2.01

Qu. Find the recorded logD belonging to Nc1cc2n[nH]c(=O)n2c2cc(-c3ccco3)ccc12 and report it.
Ans. 2.48

---

measurement_protocol: in vitro
test_parameters: hepatocytes
Please note: true (1) applies when hepatocyte CLint is 40 µL/min/1e6 cells or greater, and false (0) applies otherwise.

[[record]]
compound = "COc1ccc(-c2nc3ccccc3c(=O)[nH]2)cc1"
assigned_category = "true (1)"

[[record]]
compound = "O=c1[nH]c2c(O)ccc([C@@H](O)CNCCSCCCOCCc3ccccc3)c2s1"
assigned_category = "true (1)"

[[record]]
compound = "CCOC(=O)CN(c1ccccc1C)S(=O)(=O)c1ccc(Cl)cc1"
assigned_category = "true (1)"

[[record]]
compound = "CC(C)(C)NS(=O)(=O)c1cncc(-c2ccc3nc(NC(=O)NCC(=O)N4CCCC4)nn3c2)c1"
assigned_category = "false (0)"

[[record]]
compound = "Nc1ncnc2c1c(COc1cccc(Cl)c1)nn2C1CCOCC1"
assigned_category = "true (1)"


Qu. Is hepatocyte CLint at least 40 µL/min/1e6 cells? Consider Cc1cc2cc(C)c3nnc(SCC(=O)N4CCN(C(=O)c5ccco5)CC4)n3c2cc1C
Ans. true (1)

Qu. Is hepatocyte CLint at least 40 µL/min/1e6 cells? Consider C[C@H](Cc1cccc(CC(=O)NC23CC4CC(CC(C4)C2)C3)c1)NC[C@H](O)c1ccc(O)c(CO)c1
Ans. true (1)
